- subject_of_test: Voltage-dependent T-type calcium channel subunit alpha-1G (Homo sapiens, UniProt O43497)
- Sequence (O43497 whole entry): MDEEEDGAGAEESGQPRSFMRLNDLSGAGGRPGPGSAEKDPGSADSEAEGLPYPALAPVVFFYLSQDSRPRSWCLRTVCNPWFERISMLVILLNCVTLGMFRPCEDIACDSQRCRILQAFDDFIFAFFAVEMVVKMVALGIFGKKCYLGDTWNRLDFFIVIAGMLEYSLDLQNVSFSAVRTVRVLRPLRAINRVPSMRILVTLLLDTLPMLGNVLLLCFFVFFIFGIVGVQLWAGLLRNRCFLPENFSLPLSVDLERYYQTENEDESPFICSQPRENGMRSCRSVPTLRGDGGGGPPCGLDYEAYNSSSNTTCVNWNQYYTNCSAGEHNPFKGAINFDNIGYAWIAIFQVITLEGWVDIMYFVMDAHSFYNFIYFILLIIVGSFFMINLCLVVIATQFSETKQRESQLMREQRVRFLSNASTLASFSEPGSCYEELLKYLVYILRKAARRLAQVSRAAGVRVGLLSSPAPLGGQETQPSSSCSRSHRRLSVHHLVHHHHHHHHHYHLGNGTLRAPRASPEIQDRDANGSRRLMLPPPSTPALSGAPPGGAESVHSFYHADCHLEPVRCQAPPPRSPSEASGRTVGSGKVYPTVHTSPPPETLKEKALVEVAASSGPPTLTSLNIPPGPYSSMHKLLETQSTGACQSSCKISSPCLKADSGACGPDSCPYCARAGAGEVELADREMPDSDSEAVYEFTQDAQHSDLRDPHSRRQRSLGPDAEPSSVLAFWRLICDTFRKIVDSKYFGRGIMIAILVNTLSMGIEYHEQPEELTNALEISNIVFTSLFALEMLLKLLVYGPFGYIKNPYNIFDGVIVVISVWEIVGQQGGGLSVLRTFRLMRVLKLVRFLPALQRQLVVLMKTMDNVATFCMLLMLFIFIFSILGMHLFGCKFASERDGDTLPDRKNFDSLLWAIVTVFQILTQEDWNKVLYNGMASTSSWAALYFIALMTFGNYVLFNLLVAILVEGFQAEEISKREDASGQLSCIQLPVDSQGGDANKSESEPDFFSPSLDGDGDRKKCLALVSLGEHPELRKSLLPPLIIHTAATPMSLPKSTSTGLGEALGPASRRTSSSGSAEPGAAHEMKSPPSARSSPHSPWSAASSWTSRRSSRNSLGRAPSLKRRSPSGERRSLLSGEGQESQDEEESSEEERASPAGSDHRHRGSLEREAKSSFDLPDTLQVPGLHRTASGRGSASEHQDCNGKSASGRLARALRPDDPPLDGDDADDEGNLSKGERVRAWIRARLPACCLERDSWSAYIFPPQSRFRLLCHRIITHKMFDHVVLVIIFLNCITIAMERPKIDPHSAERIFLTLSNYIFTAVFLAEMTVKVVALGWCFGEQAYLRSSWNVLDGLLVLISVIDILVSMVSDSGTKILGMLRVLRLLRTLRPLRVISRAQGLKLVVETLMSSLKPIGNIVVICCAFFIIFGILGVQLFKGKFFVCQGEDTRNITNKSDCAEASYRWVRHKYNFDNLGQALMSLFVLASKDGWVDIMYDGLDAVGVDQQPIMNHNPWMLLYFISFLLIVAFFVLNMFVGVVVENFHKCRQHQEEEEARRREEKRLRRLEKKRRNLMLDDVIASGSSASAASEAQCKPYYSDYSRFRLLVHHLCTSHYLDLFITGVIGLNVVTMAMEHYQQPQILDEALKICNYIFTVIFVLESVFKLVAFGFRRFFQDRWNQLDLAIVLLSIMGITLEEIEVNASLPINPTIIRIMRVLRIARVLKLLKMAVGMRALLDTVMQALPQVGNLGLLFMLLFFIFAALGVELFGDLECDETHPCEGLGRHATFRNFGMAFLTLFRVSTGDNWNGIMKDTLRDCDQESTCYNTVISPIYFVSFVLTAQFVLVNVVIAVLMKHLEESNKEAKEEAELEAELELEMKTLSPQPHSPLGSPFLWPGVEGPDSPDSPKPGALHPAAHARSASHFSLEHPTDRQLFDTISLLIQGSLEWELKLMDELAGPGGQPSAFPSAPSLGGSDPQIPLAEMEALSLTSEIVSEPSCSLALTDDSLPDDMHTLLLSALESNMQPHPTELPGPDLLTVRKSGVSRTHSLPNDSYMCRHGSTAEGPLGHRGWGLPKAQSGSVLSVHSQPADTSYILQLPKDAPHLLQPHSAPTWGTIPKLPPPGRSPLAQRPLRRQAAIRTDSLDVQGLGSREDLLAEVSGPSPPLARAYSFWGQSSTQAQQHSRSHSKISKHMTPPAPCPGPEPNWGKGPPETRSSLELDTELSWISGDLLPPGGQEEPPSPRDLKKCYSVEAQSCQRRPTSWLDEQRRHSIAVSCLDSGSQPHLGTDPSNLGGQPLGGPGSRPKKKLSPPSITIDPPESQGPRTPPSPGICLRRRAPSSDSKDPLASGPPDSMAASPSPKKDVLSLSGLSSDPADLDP
- method_description: Inhibition of T-type alpha1G calcium channel expressed in HEK293 cells assessed as Kcl-induced depolarization at 10 uM
- Format: cell-based
Below, each of the compounds is paired with its reported inhibition value.
Record the value in %, omitting the unit from your answer.

COc1ccc(C(CC(=O)N2CCN(Cc3nc4ccc(C)cc4o3)CC2)c2cccc(F)c2)cc1 (centres undefined)	52
COC(=O)c1coc(CN2CCN(C(=O)CC(c3ccccc3)c3ccc(C(F)(F)F)cc3)CC2)n1 (centres undefined)	60.4

Briefly, inhibition measured for Cc1ccc2nc(CN3CCN(C(=O)CC(c4ccc(F)cc4)c4ccc(Cl)cc4)CC3)oc2c1 (centres undefined) : 15.5

Briefly, inhibition measured for COC(=O)c1coc(CN2CCN(C(=O)CC(c3ccccc3)c3ccc(Cl)cc3)CC2)n1 (centres undefined) : 35
